- Tested on: S. aureus VRSA
- Experiment: MIC, broth microdilution, vancomycin-resistant S. aureus (VRSA)
- Type: cell-based, Staphylococcus aureus
- Assay Setup: VRSA; ratio of MIC of vancomycin and MIC of analogue
Parameter Measured: MIC-fold improvement vs. vancomycin

>>> observed_result("CCCCCc1ccc(C(=O)NCCCNC(=O)C2NC(=O)C3NC(=O)C(NC(=O)C4NC(=O)C(CC(N)=O)NC(=O)C(NC(=O)C(CC(C)C)NC)C(O)c5ccc(c(Cl)c5)Oc5cc4cc(c5OC4OC(CO)C(O)C(O)C4OC4CC(C)(N)C(O)C(C)O4)Oc4ccc(cc4Cl)C3O)c3ccc(O)c(c3)-c3c(O)cc(O)cc32)cc1 (centres unmarked)")
256
>>> observed_result("CNC(CC(C)C)C(=O)NC1C(=O)NC(CC(N)=O)C(=O)NC2C(=O)NC3C(=O)NC(C(=O)NC(C(=O)NCCCNC(=O)c4ccc5cc(NS(=O)(=O)c6ccc(C(C)C)cc6)ccc5c4)c4cc(O)cc(O)c4-c4cc3ccc4O)C(O)c3ccc(c(Cl)c3)Oc3cc2cc(c3OC2OC(CO)C(O)C(O)C2OC2CC(C)(N)C(O)C(C)O2)Oc2ccc(cc2Cl)C1O (centres unmarked)")
256

Value source: paper PMC6001238
